Every entry's value here was drawn from the supplement of paper PMC6757056.

B1: library; a variant is named by its letters at N, in order (parent)
chain: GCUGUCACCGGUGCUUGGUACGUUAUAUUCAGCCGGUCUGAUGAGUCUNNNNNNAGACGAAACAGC

Variants of: B1
Experiment: normalized RNA/DNA level without ligand (relative to sTRSVctl = 100) (log10 (% of sTRSVctl)); HEK293T overexpressing SLC46A1; higher = less ribozyme self-cleavage, higher mRNA level
Conditions: without (6R,S)-folinic acid; ligand present: no
MEASURED_ATTRIBUTE: normalized RNA/DNA level without ligand (log10)

input: Dear colleague, I am looking for the recorded normalized RNA/DNA level without ligand (log10) of the following variant: UCUGUU
output: 2.02

input: Item UGAUAU has what recorded normalized RNA/DNA level without ligand (log10)?
output: 1.92

input: So what does the record say about normalized RNA/DNA level without ligand (log10) for ACCCAA ?
output: 2.02

input: Would you mind telling me what normalized RNA/DNA level without ligand (log10) value was observed for CUCCAU ?
output: 2.02

input: Name the reported normalized RNA/DNA level without ligand (log10) value associated with the variant GUCCUA
output: 1.99

input: I am curious: what normalized RNA/DNA level without ligand (log10) value has been reported for GUCAGU ?
output: 2.03

input: Query (variant): GUCAUG ; field requested: normalized RNA/DNA level without ligand (log10)
output: 2

input: I am curious: what normalized RNA/DNA level without ligand (log10) value has been reported for GACCGG ?
output: 2.08

Next:
input: Please report the recorded normalized RNA/DNA level without ligand (log10) for GGACUC .
output: 2.05

input: Fill in: normalized RNA/DNA level without ligand (log10) of GACCAA is ___
output: 2.03

input: Give the measured normalized RNA/DNA level without ligand (log10) of AUACAU .
output: 1.96

input: I have this variant here, CUGCUC , and I need its recorded normalized RNA/DNA level without ligand (log10).
output: 2.11

input: Recorded normalized RNA/DNA level without ligand (log10) of GCGAGC , please.
output: 2.01

input: Fill blank: measured normalized RNA/DNA level without ligand (log10) of the variant AUUGAA is ____.
output: 1.97
